- Test system: DMS 273 small cell lung
- testDescription: NCI tumour cell line growth inhibition, 48 h
# TGI values compiled below

Given the compound O=c1[nH]nc2ccccc2c1Cc1ccccc1 , what is its reported TGI?
> 100 µM

Given the compound COC(=O)c1ccccc1OCc1cc(=O)oc2ccc(C)cc12 , what is its reported TGI?
> 100 µM

Given the compound C[C@]12CCC(=O)C=C1CC[C@@H]1C2CC[C@]2(C)Nc3c(cnn3-c3ccccc3)CC12 (stereo not given in full) , what is its reported TGI?
> 100 µM

###

# GI50 values compiled below
- System: RXF 393 renal
- testDescription: NCI tumour cell line growth inhibition, 48 h

Take a look at these entries with their results.
# compound, reportedResult
measured = [
    ("CCC1CN2C(=N1)c1ccccc1-c1cc(Cl)ccc12 (stereo not given)", "3500 nM"),
    ("O=C(Nc1cccc(-n2cc(-c3ccncc3)c(-c3cc(O)cc(Cl)c3)n2)c1)Nc1ccc(Cl)c(C(F)(F)F)c1", "1420 nM"),
    ("COc1cc(Nc2c(C#N)cnc3cc(OCCCN4CCN(C)CC4)c(OC)cc23)c(Cl)cc1Cl", "850 nM"),
    ("CNC(=O)c1cccc2cc(Oc3ccnc4cc(OCC5(N)CC5)c(OC)cc34)ccc12", "4420 nM"),
]

Give the reported GI50 for COc1cccc2c1ccc1nc3cccc(C(=O)N[C@H](C)CN(C)C)c3nc12 (system: RXF 393 renal).
98.4 nM

Give the reported GI50 for COc1cccc([C@H]2C/C(=N\NC(=O)C(=O)N[C@@H](C)c3ccccc3)c3ccccc3N2)c1 (system: RXF 393 renal).
30.3 nM

Give the reported GI50 for CCCCC[C@H]1C/C=C2/C(=O)C=C[C@@H]2C/C=C\CCCC(=O)O[C@@H](CCCCC)C/C=C2/C(=O)C=C[C@@H]2C/C=C\CCCC(=O)O1 (system: RXF 393 renal).
193 nM

Give the reported GI50 for NC(=O)c1ccccc1Nc1ccc2nnc(-c3ccncc3)n2n1 (system: RXF 393 renal).
3770 nM

Give the reported GI50 for Cc1cc(Cl)ccc1Nc1nc(C(F)(F)F)ccc1C(=O)N/N=C/c1ccc(Cl)cc1 (system: RXF 393 renal).
3080 nM

Give the reported GI50 for COc1cccc(C2=C(c3c(C)n(C)c4ccccc34)C(=O)NC2=O)c1 (system: RXF 393 renal).
12000 nM

The values you see were collected from PubChem BioAssay (NCI).
